Measured values drawn from patent US8946218B2 for this set.

The entries below come with measured Ki values attached.
- experimental system: CCR2 (Homo sapiens, UniProt P41597)
- Construct: Membranes were prepared from THP-1 cells; endogenous in cells
- Sequence (P41597 whole entry): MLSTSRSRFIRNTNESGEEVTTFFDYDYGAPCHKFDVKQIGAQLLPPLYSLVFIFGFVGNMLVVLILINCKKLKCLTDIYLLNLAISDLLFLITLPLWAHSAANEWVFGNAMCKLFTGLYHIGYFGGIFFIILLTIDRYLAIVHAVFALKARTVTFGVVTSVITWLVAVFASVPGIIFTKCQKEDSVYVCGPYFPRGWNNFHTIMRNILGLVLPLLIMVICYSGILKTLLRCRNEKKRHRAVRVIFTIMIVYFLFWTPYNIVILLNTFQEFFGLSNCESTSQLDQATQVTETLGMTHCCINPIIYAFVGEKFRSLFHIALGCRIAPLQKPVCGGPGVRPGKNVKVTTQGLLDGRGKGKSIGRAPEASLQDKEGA
- method description: Receptor membrane binding assay: [125I]MCP-1 binding to CCR2 on THP-1 cell membranes (SPA beads)
- conditions used: THP-1 membranes, [125I]MCP-1, bound radioactivity after 8 h; read-out: hKi
Quick note: give the figure in nM, leave out the unit.

Below are worked cases with known answers.
[[record]]
compound = "CO[C@H]1COCC[C@H]1NC1CCN(C(=O)c2ncnc(Nc3ccc(Cl)c(C(F)(F)F)c3)c2C)CC1 [Example 31]"
observed_measurement = 5310

[[record]]
compound = "COc1c(Nc2cccc(C(F)(F)F)c2)ncnc1C(=O)N1CCC(N2CCC(N(C)S(C)(=O)=O)CC2)CC1 [Example 21]"
observed_measurement = 23

[[record]]
compound = "CO[C@@H]1COCC[C@@H]1NC1CCN(C(=O)c2ccnc(Nc3cccc(C(F)(F)F)c3)c2C)CC1 [Example 25]"
observed_measurement = 165

[[record]]
compound = "CO[C@@H]1COCC[C@@H]1NC1CCN(C(=O)c2nc(C(F)(F)F)nc(Nc3ccc(Cl)c(Cl)c3)c2C)CC1 [Example 33c]"
observed_measurement = 0.2

[[record]]
compound = "Cc1c(Nc2cccc(C(F)(F)F)c2)ncnc1C(=O)N1CCC(N2CCOCC2)CC1 [Example 29]"
observed_measurement = 53

[[record]]
compound = "COC1COCCC1NC1CCN(C(=O)c2ncnc(Nc3ccccc3Cl)c2C)CC1 (stereo not shown) [Example 17]"
observed_measurement = 5180


// next entry
Let me know recorded Ki for Cc1c(Nc2cccc(C(F)(F)F)c2)nc(C2CC2)nc1C(=O)N1CCC(N[C@@H]2CCOC[C@@H]2F)CC1 [Example 33s] , thanks.
1

----------
- experimental system: CCR2 (Homo sapiens)
- Construct: Membranes were prepared from THP-1 cells; endogenous in cells
- method description: Receptor membrane binding assay: [125I]MCP-1 binding to CCR2 on THP-1 cell membranes (SPA beads)
- conditions used: THP-1 membranes, [125I]MCP-1, bound radioactivity after 8 h; read-out: hKi
The entries below come with measured Ki values attached.
Quick note: give the figure in nM, leave out the unit.

Below are worked cases with known answers.
[[record]]
compound = "CO[C@@H]1COCC[C@@H]1NC1CCN(C(=O)c2ncnc(Nc3cccc(C(F)(F)F)c3)c2C)CC1 [Example 18]"
observed_measurement = 6

[[record]]
compound = "COC1COCCC1NC1CCN(C(=O)c2ncnc(Nc3cccc(OC(F)(F)F)c3)c2C)CC1 (stereo not drawn) [Example 11]"
observed_measurement = 15


// next entry
Let me know recorded Ki for Cc1c(Nc2cccc(C(F)(F)F)c2)nc(C2CC2)nc1C(=O)N1CCC(N[C@H]2CCOC[C@H]2F)CC1 [Example 33u] , thanks.
1

----------
The entries below come with measured Ki values attached.
- experimental system: CCR2 (Homo sapiens)
- Construct: Membranes were prepared from THP-1 cells; endogenous in cells
- method description: Receptor membrane binding assay: [125I]MCP-1 binding to CCR2 on THP-1 cell membranes (SPA beads)
- conditions used: THP-1 membranes, [125I]MCP-1, bound radioactivity after 8 h; read-out: hKi
Quick note: give the figure in nM, leave out the unit.

Below are worked cases with known answers.
[[record]]
compound = "CO[C@H]1COCC[C@H]1NC1CCN(C(=O)c2ccnc(Nc3cccc(C(F)(F)F)c3)c2C)CC1 [Example 26]"
observed_measurement = 46

[[record]]
compound = "COc1ccc2ccc(Nc3ncnc(C(=O)N4CCC(N[C@H]5CCOC[C@H]5OC)CC4)c3C)cc2c1 [Example 37]"
observed_measurement = 15

[[record]]
compound = "CO[C@H]1COCC[C@H]1NC1CCN(C(=O)c2cc(Nc3cccc(C(F)(F)F)c3)nc(C(F)(F)F)n2)CC1 [Example 33]"
observed_measurement = 36

[[record]]
compound = "Cc1c(Nc2ccc(Cl)c(Cl)c2)nc(C2CC2)nc1C(=O)N1CCC(N[C@@H]2CCOC[C@@H]2F)CC1 [Example 33r]"
observed_measurement = 0.9

[[record]]
compound = "COC1COCCC1NC1CCN(C(=O)c2ncnc(Nc3cc(Cl)ccc3C)c2C)CC1 (stereo not shown) [Example 12]"
observed_measurement = 728

[[record]]
compound = "Cc1c(Nc2ccc(Cl)c(Cl)c2)ncnc1C(=O)N1CCC(N[C@@H]2CCOC[C@@H]2F)CC1 [Example 33g]"
observed_measurement = 8

[[record]]
compound = "COC1COCCC1NC1CCN(C(=O)c2ncnc(Nc3cccc(C)c3)c2C)CC1 (stereo not shown) [Example 5]"
observed_measurement = 232

[[record]]
compound = "COC1COCCC1NC1CCN(C(=O)c2ncnc(Nc3cccc(C(F)(F)F)n3)c2C)CC1 (stereo not shown) [Example 4]"
observed_measurement = 110


Let me know recorded Ki for COc1cc(Nc2ncnc(C(=O)N3CCC(N[C@H]4CCOC[C@H]4OC)CC3)c2C)cc2ccccc12 [Example 38] , thanks.
91

Let me know recorded Ki for COC1COCCC1NC1CCN(C(=O)c2ncnc(Nc3cccc(-c4ccncc4)c3)c2C)CC1 (stereo not shown) [Example 16] , thanks.
707

Let me know recorded Ki for CO[C@@H]1COCC[C@@H]1NC1CCN(C(=O)c2ncnc(Nc3ccc4ccccc4c3)c2C)CC1 [Example 35] , thanks.
26
